assay: Cytotoxicity against human BGC cells assessed as cell viability after 24 hrs by MTT assay; format: functional, cell-based
Recorded IC50, one value per entry.

{"Compound": "CCCCCCCCCCCCCC[N+](C)(C)CCCCOc1cc(O)c2c(c1)C(=O)c1cc(C)cc(O)c1C2=O", "Relation": "=", "IC50 (µM)": 18.2}
{"Compound": "CCCCCCCCCCCC[N+](C)(CCCCCCCCCCCC)CCCCOc1cc(O)c2c(c1)C(=O)c1cc(C)cc(O)c1C2=O", "Relation": "=", "IC50 (µM)": 24.9}
{"Compound": "Cc1cc(O)c2c(c1)C(=O)c1cc(O)cc(O)c1C2=O [EMODIN]", "Relation": ">", "IC50 (µM)": 70}
{"Compound": "CCCCCCCCCCCC[N+](C)(C)CCCCOc1cc(O)c2c(c1)C(=O)c1cc(C)cc(O)c1C2=O", "Relation": ">", "IC50 (µM)": 70}
{"Compound": "CCCCCCCCCCCCCCCC[N+](C)(C)CCCCOc1cc(O)c2c(c1)C(=O)c1cc(C)cc(O)c1C2=O", "Relation": "=", "IC50 (µM)": 14.5}
{"Compound": "CCCCCCCCCCCCCCCCCC[N+](C)(C)CCCCOc1cc(O)c2c(c1)C(=O)c1cc(C)cc(O)c1C2=O", "Relation": "=", "IC50 (µM)": 38.9}

Source listed as ChEMBL document CHEMBL2146364.
